# Tested On: MMP-3 (Homo sapiens)
# Construct: Truncated Prostromelysin-257 was expressed in a soluble form in E.coli; made in house; host or cells: E. coli
# Sequence (P08254 100-274 limits assumed): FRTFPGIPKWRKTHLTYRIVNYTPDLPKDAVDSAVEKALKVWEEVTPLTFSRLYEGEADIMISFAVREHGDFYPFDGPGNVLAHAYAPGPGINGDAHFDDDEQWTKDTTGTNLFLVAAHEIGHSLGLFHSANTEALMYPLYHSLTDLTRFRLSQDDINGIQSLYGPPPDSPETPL
# Assay Notes: Automated MMP Profiling Assay, MMP-3 fluorogenic
# Assay type: biochemical
# Test Settings: 96-well automated, P218
Measure Name: IC50 (nM)
Supply the numeric figure in nM, leaving out any unit text.

I have this compound here, O=C(CC(CCCc1ccccc1)C(=O)O)c1ccc(-c2ccc(OCc3ccccc3)cc2)cc1 (stereo not shown) , and I need its recorded IC50.
36

Name the reported IC50 value associated with the compound O=C(CC(CCSc1ccccc1)C(=O)O)c1ccc(-c2ccc(Cl)cc2)cc1 (stereo not shown)
161

Look up IC50 for this compound: O=C(CC(CCCc1ccccc1)C(=O)O)c1ccc(-c2ccc(OCc3ccccn3)cc2)cc1 (stereo not shown)
37

Would you mind telling me what IC50 value was observed for Cc1ccccc1C(=O)OC[C@@H]1CC[C@H](C(=O)c2ccc(-c3ccc(Cl)cc3)cc2)[C@H]1C(=O)O (relative stereo) ?
77

Requested read-out: IC50. Entry: O=C(CC(CCNC(=O)c1ccccc1C(=O)O)C(=O)O)c1ccc(-c2ccc(Cl)cc2)cc1 (single isomer, unassigned) [Example 280]
146

Fill in the blank: the reported IC50 of C=CCOc1ccc(-c2ccc(C(=O)CC(CCCc3ccccc3)C(=O)O)cc2)cc1 (stereo not shown) is ____.
79

Entry under review: COC(=O)c1ccccc1C(=O)OC[C@@H]1CC[C@H](C(=O)c2ccc(-c3ccc(Cl)cc3)cc2)[C@H]1C(=O)O (relative stereo) . Reported IC50?
36

----------
# Tested On: MMP-3 (Homo sapiens)
# Construct: Truncated Prostromelysin-257 was expressed in a soluble form in E.coli; made in house; host or cells: E. coli
# Assay Notes: Automated MMP Profiling Assay, MMP-3 fluorogenic
# Type: biochemical
# Test Settings: 96-well automated, P218
Measure Name: IC50

Give the reported IC50 for CCCCCOc1ccc(-c2ccc(C(=O)C3CCC=C3C(=O)O)cc2)cc1 (stereo not shown) (system: MMP-3 (Homo sapiens)).
2760 nM

What reported IC50 corresponds to CCCOc1ccc2c(c1)C(=O)N(CCC(CC(=O)c1ccc(-c3ccc(Cl)cc3)cc1)C(=O)O)C2=O (stereo not shown) on MMP-3 (Homo sapiens)?
10.3 nM

MMP-3 (Homo sapiens) / IC50 / O=C(c1ccc(-c2ccc(Cl)cc2)cc1)[C@H]1CCN(C(=O)OCc2ccccc2)[C@@H]1C(=O)O : value?
103 nM

# value lookup — system MMP-3 (Homo sapiens), readout IC50, item O=C(CC(CCCc1ccccc1)C(=O)O)c1ccc(-c2ccc(CCc3ccccc3)cc2)cc1 (stereo not shown)
83 nM

----------
Answer each item with its documented pIC50.
# Tested On: MMP-2 (Homo sapiens)
# Sequence (P08253 110-660): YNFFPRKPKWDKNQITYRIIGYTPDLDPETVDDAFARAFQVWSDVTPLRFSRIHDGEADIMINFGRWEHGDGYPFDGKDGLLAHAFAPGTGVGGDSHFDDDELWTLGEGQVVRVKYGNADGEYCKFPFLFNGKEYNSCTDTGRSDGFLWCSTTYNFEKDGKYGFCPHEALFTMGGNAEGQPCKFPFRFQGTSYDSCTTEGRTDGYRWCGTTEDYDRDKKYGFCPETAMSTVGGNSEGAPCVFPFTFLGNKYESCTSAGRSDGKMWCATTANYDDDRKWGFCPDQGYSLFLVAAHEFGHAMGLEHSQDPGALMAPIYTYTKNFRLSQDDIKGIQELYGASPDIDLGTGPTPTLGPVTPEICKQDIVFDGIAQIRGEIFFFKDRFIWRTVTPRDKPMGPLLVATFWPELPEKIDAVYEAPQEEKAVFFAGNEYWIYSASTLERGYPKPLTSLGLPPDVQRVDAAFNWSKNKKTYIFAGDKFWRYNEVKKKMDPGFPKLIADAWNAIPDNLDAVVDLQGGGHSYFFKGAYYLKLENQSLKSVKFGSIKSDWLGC
# Assay Notes: Automated MMP Profiling Assay, MMP-2 fluorogenic
# Assay type: biochemical
# Test Settings: 96-well automated, P218; read-out: MMP-2 Fluorogenic IC50 (profiling)
Scale note: pIC50 = -log10(concentration in M).

If you can, please state the reported pIC50 value of O=C(C[C@H](CSc1ccccc1)C(=O)O)c1ccc(-c2ccc(Cl)cc2)cc1 [Example 197] .
7.66

For the compound shown here, O=C(NC[C@@H]1CC[C@H](C(=O)c2ccc(-c3ccc(Cl)cc3)cc2)[C@H]1C(=O)O)OCc1ccccc1 (relative stereo) [Example 377] , give the reported pIC50.
7.55

I am curious: what pIC50 value has been reported for O=C(O)[C@@H]1[C@@H](C(=O)c2ccc(-c3ccc(Cl)cc3)cc2)CC[C@H]1SCc1ccccc1 (relative stereo) [Example 441] ?
7.57

Look up pIC50: CCN(CC)C(=O)c1cccc(CC[C@H](CC(=O)c2ccc(-c3ccc(Cl)cc3)cc2)C(=O)O)c1 [Example 146]
6.27

Data provenance: patent US5789434A
